Entries and their kinase still bound, per cent of control
MEASURED_ON: UniProtKB Q00535
Sequence (Q00535 whole entry, looked up): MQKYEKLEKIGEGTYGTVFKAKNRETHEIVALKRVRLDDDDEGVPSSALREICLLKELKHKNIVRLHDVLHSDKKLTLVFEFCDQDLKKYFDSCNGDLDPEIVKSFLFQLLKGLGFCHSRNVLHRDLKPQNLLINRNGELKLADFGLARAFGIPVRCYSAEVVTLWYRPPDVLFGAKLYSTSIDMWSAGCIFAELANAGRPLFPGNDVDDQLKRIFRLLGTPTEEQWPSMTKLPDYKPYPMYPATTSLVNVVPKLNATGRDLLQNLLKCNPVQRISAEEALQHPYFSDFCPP
TEST_DESCRIPTION: KINOMEscan competition binding
MEASUREMENT_SETUP: compound 10.0 µM
Only the number, expressed in %, is required.

Here is how some compounds turned out for kinase still bound, per cent of control.
INSERT INTO results (smiles_string, uom, observed_result) VALUES
  ('COc1cc2ncn(-c3cc(OCc4ccccc4C(F)(F)F)c(C(N)=O)s3)c2cc1OC', '%', 100),
  ('C[C@@H](Oc1cc(-c2cnn(C3CCNCC3)c2)cnc1N)c1c(Cl)ccc(F)c1Cl', '%', 100),
  ('COc1cc(N2CCN(C)CC2)ccc1Nc1ncc2c(n1)N(C)c1ccccc1C(=O)N2C', '%', 100),
  ('CN(C)C/C=C/C(=O)Nc1ccc(C(=O)Nc2cccc(Nc3nccc(-c4cccnc4)n3)c2)cc1', '%', 100),
  ('CCN(CC)CCCCNc1ncc2cc(-c3cc(OC)cc(OC)c3)c(NC(=O)NC(C)(C)C)nc2n1', '%', 100);

Task item: Suppose we examine the compound O=C(Nc1cccc(Nc2ncc(Br)c(NCCc3cnc[nH]3)n2)c1)N1CCCC1 ; what kinase still bound, per cent of control value has been reported?
Reply: 24

Task item: Which value of kinase still bound, per cent of control has been reported for CCN(CC)CCCCNc1ncc2c(n1)N(C)C(=O)N(c1c(Cl)c(OC)cc(OC)c1Cl)C2 in the records?
Reply: 100
